These measurements were taken from paper PMC12669672.

- assay system: constitutively active EP4 V320A (Homo sapiens, UniProt P35408, V320A)
- Construct: The full-length EP2 or EP4 was cloned into the pcDNA3.1 vector (Invitrogen), incorporating an N-terminal FLAG tag
- Sequence (P35408 whole entry V320A): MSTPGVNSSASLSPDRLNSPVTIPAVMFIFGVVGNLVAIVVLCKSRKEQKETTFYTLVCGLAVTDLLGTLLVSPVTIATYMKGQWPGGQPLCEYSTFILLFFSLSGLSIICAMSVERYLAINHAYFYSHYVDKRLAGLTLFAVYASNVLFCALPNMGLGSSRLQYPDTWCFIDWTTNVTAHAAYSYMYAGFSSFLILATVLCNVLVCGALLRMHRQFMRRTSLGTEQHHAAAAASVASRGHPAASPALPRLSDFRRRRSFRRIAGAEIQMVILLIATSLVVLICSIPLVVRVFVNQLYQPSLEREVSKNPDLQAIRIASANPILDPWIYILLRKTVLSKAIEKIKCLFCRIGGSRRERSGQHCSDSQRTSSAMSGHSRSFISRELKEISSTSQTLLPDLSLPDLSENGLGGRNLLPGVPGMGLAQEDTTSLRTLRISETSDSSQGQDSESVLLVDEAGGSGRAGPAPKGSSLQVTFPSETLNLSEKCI
- protocol: GloSensor cAMP assay, inhibition of constitutive activity
measured endpoint: IC50 (µM)
Lab book: enter the figure in µM, no units written.

CCc1nc2c(C)nc(C)cc2n1-c1ccc(CCNC(=O)NS(=O)(=O)c2ccc(C)cc2)cc1    0.0112

// below: IC50 requested for another compound
Request: Can you look up the measured IC50 of "CCc1nnc(NS(=O)(=O)c2ccc(NC(=S)NC(=O)/C=C/c3ccc(F)cc3)cc2)s1" for me?
Response: 6.76

====

- assay system: EP4 V72A (Homo sapiens, UniProt P35408, V72A)
- Construct: The full-length EP2 or EP4 was cloned into the pcDNA3.1 vector; FLAG (N)
- Sequence (P35408 whole entry V72A): as the sequence (P35408 whole entry V320A) above, with V72A, A320V counted along it
- protocol: GloSensor cAMP assay, antagonism of PGE2-induced cAMP
We begin with a simple list: items and their reported IC50.
Lab book: enter the figure in µM, no units written.

CCc1nnc(NS(=O)(=O)c2ccc(NC(=S)NC(=O)/C=C/c3ccc(F)cc3)cc2)s1    18.2

Request: Can you look up the measured IC50 of "CCc1nc2c(C)nc(C)cc2n1-c1ccc(CCNC(=O)NS(=O)(=O)c2ccc(C)cc2)cc1" for me?
Response: 0.11

====

- assay system: constitutively active EP2 S28A (Homo sapiens, UniProt P43116, S28A)
- Construct: The full-length EP2 or EP4 was cloned into the pcDNA3.1 vector; FLAG (N)
- Sequence (P43116 whole entry S28A): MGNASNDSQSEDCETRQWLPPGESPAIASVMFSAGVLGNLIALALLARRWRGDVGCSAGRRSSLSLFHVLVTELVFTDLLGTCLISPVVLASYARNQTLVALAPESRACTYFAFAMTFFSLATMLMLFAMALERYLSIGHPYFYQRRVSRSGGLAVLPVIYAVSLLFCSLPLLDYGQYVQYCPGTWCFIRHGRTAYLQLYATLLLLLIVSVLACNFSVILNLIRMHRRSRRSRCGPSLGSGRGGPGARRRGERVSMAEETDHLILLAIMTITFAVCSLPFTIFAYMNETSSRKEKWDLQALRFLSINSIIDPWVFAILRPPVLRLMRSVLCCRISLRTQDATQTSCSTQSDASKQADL
- protocol: GloSensor cAMP assay, inhibition of constitutive activity
measured endpoint: IC50 (µM)
Lab book: enter the figure in µM, no units written.

Request: Can you look up the measured IC50 of "CCc1nnc(NS(=O)(=O)c2ccc(NC(=S)NC(=O)/C=C/c3ccc(F)cc3)cc2)s1" for me?
Response: 0.0389
